Entry source: patent US20120225828A1

Biological target: human melanocortin-1 receptor hMCR-1 expressed by the human melanoma cell line HBL (human, UniProt Q01726 1-317)
Sequence (Q01726 whole entry): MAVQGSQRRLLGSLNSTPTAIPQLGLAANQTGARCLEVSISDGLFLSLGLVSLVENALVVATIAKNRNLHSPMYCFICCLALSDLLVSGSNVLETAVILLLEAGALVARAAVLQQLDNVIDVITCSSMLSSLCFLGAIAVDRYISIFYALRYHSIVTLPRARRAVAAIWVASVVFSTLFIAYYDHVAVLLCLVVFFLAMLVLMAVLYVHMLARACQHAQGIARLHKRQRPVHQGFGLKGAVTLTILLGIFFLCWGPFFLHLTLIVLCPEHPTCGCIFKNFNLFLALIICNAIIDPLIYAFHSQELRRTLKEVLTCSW
Experiment: cell-based or functional assay
Bridge positions count the residues as written; N and C are the ends. Square brackets hold non-standard residues; d marks the D form. dPhe(3-Cl) = N[C@H](Cc1cccc(Cl)c1)C(=O)O; Nle = CCCC[C@H](N)C(=O)O; Orn = NCCC[C@H](N)C(=O)O; Dab = NCC[C@H](N)C(=O)O; Dap = NC[C@H](N)C(=O)O
test readout: MC-1 Emax (average; cAMP HBL) (%)

Ac-[Nle]E[Orn][dPhe(3-Cl)]R[Dab]-NH2 (lactam 2-6; SMILES CCCC[C@H](NC(C)=O)C(=O)N[C@H]1CCC(=O)NCC[C@@H](C(N)=O)NC(=O)[C@H](CCCNC(=N)N)NC(=O)[C@@H](Cc2cccc(Cl)c2)NC(=O)[C@H](CCCN)NC1=O) [Ac-Nle-cyclo(Glu-Orn-D-Phe(3-Cl)-Arg-Dab)-NH2]; 86
Ac-[Nle][Dab]H[dF]R[Dap]W-NH2 (linker 2-6 via C(:O)‑(CH2)2‑C(:O)) [Ac-Nle-cyclo(Dab-His-D-Phe-Arg-Dap)-Trp-NH2 with bridge C(═O)-(CH2)2-C(═O)]; 78
Ac-[Nle]EP[dF]R[Dab]-NH2 (lactam 2-6) [Ac-Nle-cyclo(Glu-Pro-D-Phe-Arg-Dab)-NH2]; 102
Ac-[Nle]EH[dF]R[Dab]-NH2 (lactam 2-6; SMILES CCCC[C@H](NC(C)=O)C(=O)N[C@H]1CCC(=O)NCC[C@@H](C(N)=O)NC(=O)[C@H](CCCNC(=N)N)NC(=O)[C@@H](Cc2ccccc2)NC(=O)[C@H](Cc2c[nH]cn2)NC1=O) [Ac-Nle-cyclo(Glu-His-D-Phe-Arg-Dab)-NH2]; 85
